All values here come from patent US20160122421A1.

- target entity: T1, 383 amino acid recombinant tau (UniProt P10636-6 1-383, biotinylated where printed as biotin-rTau383 (position not given))
- T1 construct: also called rTau383
- T1 sequence (P10636 other isoform, or with tags, fused parts or gaps limits assumed): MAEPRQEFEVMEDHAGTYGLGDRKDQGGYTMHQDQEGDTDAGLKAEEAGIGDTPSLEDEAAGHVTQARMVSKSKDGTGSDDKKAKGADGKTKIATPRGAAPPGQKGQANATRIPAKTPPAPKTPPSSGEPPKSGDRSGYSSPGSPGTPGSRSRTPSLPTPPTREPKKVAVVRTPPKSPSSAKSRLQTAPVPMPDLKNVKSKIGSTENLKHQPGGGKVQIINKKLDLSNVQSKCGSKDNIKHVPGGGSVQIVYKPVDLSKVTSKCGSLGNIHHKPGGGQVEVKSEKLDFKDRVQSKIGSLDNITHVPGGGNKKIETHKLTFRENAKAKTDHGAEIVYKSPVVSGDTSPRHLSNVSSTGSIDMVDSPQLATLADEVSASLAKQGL
- assay summary: relative binding affinity, method not named (Table 4)
assay readout: Kd

Example entries begin here.
binder	Kd
humanized IPN002 variant VH2/Vk3 (antibody, V domains shown) VH: EVHLVESGGALVKPGGSLRLSCAASGFSFSKYGMSWVRQAPGKGLEWVATISSSGSRTYYPDSVKGRFTISRDNAKNTLYLQMNSLRAEDTAMYYCSISWDGAMDYWGQGTTVTVSS VL: DVVMTQSPLSLPVTLGQPASISCKSSQSIVHSNGNTYLEWYLQKPGQSPQLLVYKVSNRFSGVPDRFSGSGSGTDFTLKISRVEAEDVGVYYCFQGSLVPWAFGGGTKVEIK	223 pM
VH1/Vk4 (antibody, V domains shown, member of the group m7; also called humanized IPN002 variant VH1/Vk4) VH: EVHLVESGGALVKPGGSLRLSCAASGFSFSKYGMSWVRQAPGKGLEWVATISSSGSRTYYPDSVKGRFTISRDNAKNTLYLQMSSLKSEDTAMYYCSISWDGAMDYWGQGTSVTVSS VL: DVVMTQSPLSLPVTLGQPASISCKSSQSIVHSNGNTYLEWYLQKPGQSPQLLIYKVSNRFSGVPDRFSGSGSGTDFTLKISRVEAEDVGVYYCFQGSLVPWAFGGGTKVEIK	286 pM
VH1/Vk1 (antibody, V domains shown, member of the group m7; also called humanized IPN002 variant VH1/Vk1) VH: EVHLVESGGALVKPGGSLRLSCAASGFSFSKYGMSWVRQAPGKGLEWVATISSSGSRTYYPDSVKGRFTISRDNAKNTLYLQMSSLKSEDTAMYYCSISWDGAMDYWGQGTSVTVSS VL: DVLMTQSPLSLPVTLGQPASISCKSSQSIVHSNGNTYLEWYLQKPGQSPQLLVYKVSNRFSGVPDRFSGSGSGTDFTLKISRVEAEDVGTYYCFQGSLVPWAFGGGTKVEIK	183 pM
VH2/Vk4 (antibody, V domains shown, member of the group m7; also called humanized IPN002 variant VH2/Vk4) VH: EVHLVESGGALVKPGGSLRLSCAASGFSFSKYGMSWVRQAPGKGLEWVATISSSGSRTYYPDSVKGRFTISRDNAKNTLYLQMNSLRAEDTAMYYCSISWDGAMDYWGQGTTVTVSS VL: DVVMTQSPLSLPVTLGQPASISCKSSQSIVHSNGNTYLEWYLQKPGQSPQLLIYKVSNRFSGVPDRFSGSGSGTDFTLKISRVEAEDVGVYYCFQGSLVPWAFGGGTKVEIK	248 pM

Task: For the binder shown here, humanized IPN002 variant VH2/Vk1 (antibody, V domains shown) VH: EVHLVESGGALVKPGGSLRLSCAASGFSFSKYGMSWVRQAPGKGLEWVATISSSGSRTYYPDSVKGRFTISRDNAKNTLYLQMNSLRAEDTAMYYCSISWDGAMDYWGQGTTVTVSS VL: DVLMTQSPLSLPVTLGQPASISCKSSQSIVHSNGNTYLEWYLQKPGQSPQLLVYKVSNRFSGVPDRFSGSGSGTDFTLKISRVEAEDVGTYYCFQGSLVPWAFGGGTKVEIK , give the reported Kd.
Result: 242 pM
